- Protocol details: Chemical and optical properties of NIR dyes (Table 1)
- Format: physicochemical
Q (%) by entry:
Please respond with the number in % and leave the unit unwritten.

Previously resolved entries follow.
Report Q (%) for CC1(C)C(/C=C/C=C/C=C/C=C2\N(CCCCS(=O)(=O)O)c3ccc4ccccc4c3C2(C)C)=[N+](CCCCS(=O)(=O)[O-])c2ccc3ccccc3c21 please.
9.3

Now give it for CC1(C)C(/C=C/C2=C(Oc3ccc(C[C@H](NC(=O)c4ccc(NCc5cnc6nc(N)[nH]c(=O)c6n5)cc4)C(=O)[O-])cc3)C(=C/C=C3\N(CCCCS(=O)(=O)[O-])c4ccc(S(=O)(=O)[O-])cc4C3(C)C)/CCC2)=[N+](CCCCS(=O)(=O)[O-])c2ccc(S(=O)(=O)[O-])cc21.[H+].[H+].[H+].[H+] too.
15.6

Now give it for CC1(C)C(=CC=C2CCCC(C=CC3=[N+](CCC[N+](C)(C)C)c4ccc(S(=O)(=O)O)cc4C3(C)C)=C2Oc2ccc(CCC(=O)O)cc2)N(CCC[N+](C)(C)C)c2ccc(S(=O)(=O)O)cc21 [ZW80o] too.
15.1

Continuing:
Report Q (%) for CC1(C)C(/C=C/C2=C(Oc3ccc(S(=O)(=O)O)cc3)C(=C/C=C3/N(CCCCS(=O)(=O)O)c4ccc(S(=O)(=O)[O-])cc4C3(C)C)/CCC2)=[N+](CCCCCC(=O)O)c2ccc(S(=O)(=O)O)cc21 [IR800CW] please.
14.2

----------
- Protocol details: Chemical and optical properties of NIR dyes (Table 1)
- Format: physicochemical
Measure: Stokes Shift (nm)
Please respond with the number in nm and leave the unit unwritten.

Previously resolved entries follow.
Report Stokes Shift (nm) for CC1(C)C(/C=C/C2=C(Oc3ccc(C[C@H](NC(=O)c4ccc(NCc5cnc6nc(N)[nH]c(=O)c6n5)cc4)C(=O)[O-])cc3)C(=C/C=C3\N(CCCCS(=O)(=O)[O-])c4ccc(S(=O)(=O)[O-])cc4C3(C)C)/CCC2)=[N+](CCCCS(=O)(=O)[O-])c2ccc(S(=O)(=O)[O-])cc21.[H+].[H+].[H+].[H+] please.
20

Now give it for CC1(C)C(/C=C/C2=C(Oc3ccc(S(=O)(=O)O)cc3)C(=C/C=C3/N(CCCCS(=O)(=O)O)c4ccc(S(=O)(=O)[O-])cc4C3(C)C)/CCC2)=[N+](CCCCCC(=O)O)c2ccc(S(=O)(=O)O)cc21 [IR800CW] too.
14

Now give it for CC1(C)C(=CC=C2CCCC(C=CC3=[N+](CCC[N+](C)(C)C)c4ccc(S(=O)(=O)O)cc4C3(C)C)=C2Oc2ccc(CCC(=O)O)cc2)N(CCC[N+](C)(C)C)c2ccc(S(=O)(=O)O)cc21 [ZW80o] too.
16

Now for another entry.
Report Stokes Shift (nm) for CC1(C)C(/C=C/C=C/C=C/C=C2\N(CCCCS(=O)(=O)O)c3ccc4ccccc4c3C2(C)C)=[N+](CCCCS(=O)(=O)[O-])c2ccc3ccccc3c21 please.
15

----------
- Protocol details: Chemical and optical properties of NIR dyes (Table 1)
- Assay type: physicochemical
E by entry:
Please respond with the number in M⁻¹ cm⁻¹ and leave the unit unwritten.

Report E for CC1(C)C(=CC=C2CCCC(C=CC3=[N+](CCC[N+](C)(C)C)c4ccc(S(=O)(=O)O)cc4C3(C)C)=C2Oc2ccc(CCC(=O)O)cc2)N(CCC[N+](C)(C)C)c2ccc(S(=O)(=O)O)cc21 [ZW80o] please.
249000

Now give it for CC1(C)C(/C=C/C2=C(Oc3ccc(C[C@H](NC(=O)c4ccc(NCc5cnc6nc(N)[nH]c(=O)c6n5)cc4)C(=O)[O-])cc3)C(=C/C=C3\N(CCCCS(=O)(=O)[O-])c4ccc(S(=O)(=O)[O-])cc4C3(C)C)/CCC2)=[N+](CCCCS(=O)(=O)[O-])c2ccc(S(=O)(=O)[O-])cc21.[H+].[H+].[H+].[H+] too.
272000

Now give it for CC1(C)C(/C=C/C2=C(Oc3ccc(S(=O)(=O)O)cc3)C(=C/C=C3/N(CCCCS(=O)(=O)O)c4ccc(S(=O)(=O)[O-])cc4C3(C)C)/CCC2)=[N+](CCCCCC(=O)O)c2ccc(S(=O)(=O)O)cc21 [IR800CW] too.
237000

Continuing:
Report E for CC1(C)C(/C=C/C=C/C=C/C=C2\N(CCCCS(=O)(=O)O)c3ccc4ccccc4c3C2(C)C)=[N+](CCCCS(=O)(=O)[O-])c2ccc3ccccc3c21 please.
121000
